Measured values drawn from ChEMBL document CHEMBL5226283 for this set.

# test details: Permeability of compound by PAMPA assay
# Assay type: ADME
# condition notes: read-out: permeability
measured metric: Papp (×10⁻⁶ cm/s)

INSERT INTO results (input_smiles, measured_metric, measured_value) VALUES
  ('CC1(C)OB(c2ccc(COn3c(C(=O)NCc4ccc(-c5ccccc5)cc4)cccc3=O)cc2)OC1(C)C', 'Papp', 6.35);

* * *

# test details: Cytotoxicity against human HEK293T cells assessed as cell growth inhibition
pEC50: −log10 of the molar value.
measured metric: pEC50

INSERT INTO measurements (input_smiles, measured_value) VALUES
  ('CC1(C)OB(c2ccc(COC(=O)ONC(=O)CCCCCCC(=O)Nc3ccccc3)cc2)OC1(C)C', '< 6.00');
